Documented % dose remaining Mouse liver tissue, 24 h across a set of molecules
Experiment: Lipid clearance: lipid level in mouse liver tissue (LC-MS/MS)
Assay type: in vivo
Settings: CD-1 mouse liver 24 h after 0.5 mg/kg bolus dose mRNA, n = 5 ± S.D.
# output: bare number, implied unit %

Recorded results for 2 molecules are shown here.
CCCCCCCCCOC(=O)CCCCCCCN(CCO)CCCCCCCC(=O)OCCCCCCCCC [Compound 138]    0
CCCCC/C=C\C/C=C\CCCCCCCCN(CCO)CCCCCCCC(=O)OCCCCCCCCC [Compound 136]    0

Next up:
Exam item: Given the molecule CCCCCCCCCOC(=O)CCCCCCCN(CCCCCCCC(=O)OC(CCCCCCCC)CCCCCCCC)CCCNC(=O)C(C)(C)COC [Compound 281] , write its reported % dose remaining Mouse liver tissue, 24 h.
Marked response: 66

###

System: luciferase (Luc) mRNA
Experiment: Luc expression, whole body bioluminescence after intravenous administration to mice
Format: in vivo
Settings: luciferase, intravenous, relative to MC3 formulation
Documented Novel lipid/MC3 expression ratio, 6 hr. time point, i.v. across a set of compounds
// return a plain number; no unit text

Recorded results for 5 compounds are shown here.
CCCCCCCCCCCOC(=O)CCCCCN(CCO)CCCCCCCC(=O)OC(CCCCCCCC)CCCCCCCC [Compound 25]    1.89
CCCCCCCCCOC(=O)CCCCCCCN(CCCCCCCC(=O)OC(CCCCCCCC)CCCCCCCC)CCCNC(=S)N(C)C [Compound 111]    2.59
CCCC/C=C\CCC(CC/C=C\CCCC)OC(=O)CCCCCCCN(CCO)CCCCCCCC(=O)OCCCCCCCCC [Compound 60]    3.37
CCCCCC/C=C\COC(=O)CCCCCCCN(CCO)CCCCCCCC(=O)OC(CCCCCCCC)CCCCCCCC [Compound 24]    2.67
CCCCCCCCCOC(=O)CCCCCCCN(CCCCCCCC(=O)OC(CCCCCCCC)CCCCCCCC)C(C)CO (stereo not drawn) [Compound 157]    1.29

Exam item: Given the compound CCCCCCCCC(C)OC(=O)CCCCCN(CCO)CCCCCCCC(=O)OC(CCCCCCCC)CCCCCCCC (stereo not drawn) [Compound 122] , write its reported Novel lipid/MC3 expression ratio, 6 hr. time point, i.v..
Marked response: 3.23

Exam item: Given the compound CCCCCCCCCOC(=O)CCCCCCCN(CCO)CCCCCCCOC(=O)C(CCCCCCCC)CCCCCCCC [Compound 30] , write its reported Novel lipid/MC3 expression ratio, 6 hr. time point, i.v..
Marked response: 2.49

Exam item: Given the compound CCCCCCCCC(CC)OC(=O)CCCCCN(CCO)CCCCCCCC(=O)OC(CCCCCCCC)CCCCCCCC (stereo not drawn) [Compound 75] , write its reported Novel lipid/MC3 expression ratio, 6 hr. time point, i.v..
Marked response: 3.29

Exam item: Given the compound CCCCCCCCC(CC)OC(=O)CCCCCCCN(CCO)CCCCCCCC(=O)OC(CCCCCCCC)CCCCCCCC (stereo not drawn) [Compound 49] , write its reported Novel lipid/MC3 expression ratio, 6 hr. time point, i.v..
Marked response: 9.81

Exam item: Given the compound CCCCCCCCC(CC)OC(=O)CCCN(CCO)CCCCCCCC(=O)OC(CCCCCCCC)CCCCCCCC (stereo not drawn) [Compound 72] , write its reported Novel lipid/MC3 expression ratio, 6 hr. time point, i.v..
Marked response: 1.52

Exam item: Given the compound CCCCCCCCC(CCCCCCCC)OC(=O)CCCCCCCN(CCO)CCCCCC(=O)OC(CCCCCCCC)C1CC1 (stereo not drawn) [Compound 128] , write its reported Novel lipid/MC3 expression ratio, 6 hr. time point, i.v..
Marked response: 4.05

Exam item: Given the compound CCCC/C=C\CCC(CC/C=C\CCCC)OC(=O)CCCCCCCN(CCO)CCCCCC(=O)OCCCCCCCCCCC [Compound 61] , write its reported Novel lipid/MC3 expression ratio, 6 hr. time point, i.v..
Marked response: 2.31
